Source listed as patent EP2758401B1.

Kindly supply the reported pIC50 values for the records listed here.
target: MKNK1 (Homo sapiens, UniProt Q9BUB5, T385D); construct: GST (N); purchased Carna Biosciences 02-145; host or cells: insect cells (baculovirus expression system); test: MKNK1 kinase high ATP assay (TR-FRET); assay type: biochemical; conditions: ATP final conc. 2 mM; 15 min pre-incubation; reaction time 30 min at 22°C
Sequence (Q9BUB5 1-424 isoform Q9BUB5-2 T344D): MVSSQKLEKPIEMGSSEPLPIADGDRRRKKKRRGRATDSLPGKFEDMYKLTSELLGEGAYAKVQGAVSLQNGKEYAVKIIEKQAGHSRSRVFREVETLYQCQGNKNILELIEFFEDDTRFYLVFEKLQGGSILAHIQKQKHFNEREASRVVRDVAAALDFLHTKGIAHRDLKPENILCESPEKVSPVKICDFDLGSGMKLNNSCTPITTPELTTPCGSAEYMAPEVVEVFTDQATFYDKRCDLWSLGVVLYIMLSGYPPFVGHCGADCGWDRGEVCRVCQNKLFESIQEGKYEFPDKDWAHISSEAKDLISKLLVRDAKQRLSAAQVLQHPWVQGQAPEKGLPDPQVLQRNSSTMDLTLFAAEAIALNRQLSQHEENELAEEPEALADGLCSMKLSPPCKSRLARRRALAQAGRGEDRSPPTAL
// returns pIC50 (minus log10 of molar concentration), number only

Query :: Please give the measured pIC50 for this compound: "NC[C@H]1C[C@H](Oc2ccc3ncc(-c4cc5ccccc5o4)n3n2)C1"
Result :: 8.22

Query :: Now give it for "N[C@H]1C[C@H](Oc2ccc3ncc(-c4cc5cc(Cl)ccc5o4)n3n2)C1" too.
Result :: 8.30

Query :: Now give it for "N[C@H]1CCC[C@H]1Oc1ccc2ncc(-c3cc4ccccc4o3)n2n1" too.
Result :: 7.66

Query :: Now give it for "N[C@@H](COc1ccc2ncc(-c3cc4ccccc4o3)n2n1)c1ccccc1" too.
Result :: 7.48

Query :: Now give it for "CC(C)(N)CCOc1ccc2ncc(-c3cc4ccccc4o3)n2n1" too.
Result :: 7.41

Query :: Now give it for "C[C@H](N)COc1ccc2ncc(-c3cc4c(F)cccc4o3)n2n1" too.
Result :: 7.15

Query :: Now give it for "N[C@H](COc1ccc2ncc(-c3cc4cc(Cl)ccc4o3)n2n1)c1ccccc1" too.
Result :: 6.95

Query :: Now give it for "COc1ccc2oc(-c3cnc4ccc(O[C@H]5C[C@H](N)C5)nn34)cc2c1" too.
Result :: 8.22

Query :: Now give it for "C[C@H](CN)Oc1ccc2ncc(-c3cc4cccc(F)c4o3)n2n1" too.
Result :: 6.94

---

Biological target: MKNK1 (Homo sapiens, UniProt Q9BUB5, T385D)
Construct: GST (N); purchased Carna Biosciences 02-145; host or cells: insect cells (baculovirus expression system)
Test: MKNK1 kinase high ATP assay (TR-FRET)
Format: biochemical
Conditions: ATP final conc. 2 mM; 15 min pre-incubation; reaction time 30 min at 22°C
Protocol: MKNK1-inhibitory activity at high ATP of compounds of the present invention after their preincubation with MKNK1 was quantified employing the TR-FRET-based MKNK1 high ATP assay as described in the following paragraphs. As substrate for the kinase reaction the biotinylated peptide biotin-Ahx-[…] (C-terminus in amide form) was used, which can be purchased e.g. from the company Biosyntan (Berlin-Buch, Germany). […]
Measure name: pIC50
// returns pIC50 (minus log10 of molar concentration), number only

Query :: Please give the measured pIC50 for this compound: COc1ccc2oc(-c3cnc4ccc(OCCN)nn34)cc2c1 [Example 6]
Result :: 7.89

Query :: Now give it for NCCOc1ccc2ncc(-c3cc4ccccc4o3)n2n1 [Example 12] too.
Result :: 7.57

Query :: Now give it for NCC(Cc1ccccc1)Oc1ccc2ncc(-c3cc4ccccc4o3)n2n1 (centres unmarked) [Example 26] too.
Result :: 7.60

Query :: Now give it for N[C@@H]1CCCC[C@H]1Oc1ccc2ncc(-c3cc4ccccc4o3)n2n1 [Example 23] too.
Result :: 7.74

Query :: Now give it for NCCOCCOc1ccc2ncc(-c3cc4ccccc4o3)n2n1 [Example 21] too.
Result :: 7.85

---

biological target: MKNK1 (Homo sapiens, UniProt Q9BUB5, T385D); construct: GST (N); purchased Carna Biosciences 02-145; host or cells: insect cells (baculovirus expression system); experiment: MKNK1 kinase assay (TR-FRET); type: biochemical; conditions: ATP final conc. 10 µM; 15 min pre-incubation; reaction time 45 min at 22°C
Lab note: cut-off is 20 nM. Strictly less in IC50 is y. Exactly 20 nM or more is n.

Query :: In the record for NCCC(Oc1ccc2ncc(-c3cc4ccccc4o3)n2n1)c1ccc(F)cc1 (stereo not shown) , is IC50 less than 20 nM?
Result :: n

Query :: Now give it for "N[C@H]1C[C@H](Oc2ccc3ncc(-c4cc5cc(F)ccc5o4)n3n2)C1" too.
Result :: y

Query :: Now give it for NCC(Oc1ccc2ncc(-c3cc4ccccc4o3)n2n1)c1ccccn1 (stereo not shown) too.
Result :: n

Query :: Now give it for "NC[C@H]1C[C@H](Oc2ccc3ncc(-c4cc5ccccc5o4)n3n2)C1" too.
Result :: y

Query :: Now give it for "N[C@@H](COc1ccc2ncc(-c3cc4ccccc4o3)n2n1)c1ccccc1" too.
Result :: n

Query :: Now give it for NCC(Cc1ccccc1)Oc1ccc2ncc(-c3cc4ccccc4o3)n2n1 (stereo not shown) too.
Result :: y

Query :: Now give it for "C[C@H](N)COc1ccc2ncc(-c3cc4c(F)cccc4o3)n2n1" too.
Result :: y

Query :: Now give it for NCC(Oc1ccc2ncc(-c3cc4ccccc4o3)n2n1)C1CCOC1 (stereo not shown) too.
Result :: n

Query :: Now give it for "C[C@@H](N)COc1ccc2ncc(-c3cc4cc(Cl)ccc4o3)n2n1" too.
Result :: n

Query :: Now give it for "NCCCCOc1ccc2ncc(-c3cc4ccccc4o3)n2n1" too.
Result :: y

Query :: Now give it for "N[C@H](COc1ccc2ncc(-c3cc4c(F)cccc4o3)n2n1)c1ccccc1" too.
Result :: n

Query :: Now give it for "N[C@H]1CCC[C@@H]1Oc1ccc2ncc(-c3cc4ccccc4o3)n2n1" too.
Result :: y

Query :: Now give it for NCC(Oc1ccc2ncc(-c3cc4ccccc4o3)n2n1)c1ccc(F)cc1F (stereo not shown) too.
Result :: n

Query :: Now give it for "C[C@H](N)COc1ccc2ncc(-c3cc4ccccc4o3)n2n1" too.
Result :: y

Query :: Now give it for "N[C@H]1C[C@H](Oc2ccc3ncc(-c4cc5ccccc5o4)n3n2)C1" too.
Result :: y

Query :: Now give it for "C[C@H](CN)Oc1ccc2ncc(-c3cc4cccc(F)c4o3)n2n1" too.
Result :: n

Query :: Now give it for NCC(Oc1ccc2ncc(-c3cc4ccccc4o3)n2n1)c1ccc(F)cc1 (stereo not shown) too.
Result :: n

Query :: Now give it for "COc1ccc2oc(-c3cnc4ccc(O[C@H]5C[C@H](N)C5)nn34)cc2c1" too.
Result :: y

Query :: Now give it for "NCCOc1ccc2ncc(-c3cc4ccccc4o3)n2n1" too.
Result :: y

Query :: Now give it for "NC1(COc2ccc3ncc(-c4cc5ccccc5o4)n3n2)CC1" too.
Result :: n

Query :: Now give it for "N[C@H](COc1ccc2ncc(-c3cc4cc(Cl)ccc4o3)n2n1)c1ccccc1" too.
Result :: n

Query :: Now give it for "COc1cccc2oc(-c3cnc4ccc(OCCCN)nn34)cc12" too.
Result :: y

Query :: Now give it for "N[C@H]1C[C@@H](Oc2ccc3ncc(-c4cc5ccccc5o4)n3n2)C1" too.
Result :: y

Query :: Now give it for "COc1cccc2oc(-c3cnc4ccc(OCCCCN)nn34)cc12" too.
Result :: y

Query :: Now give it for NC(COc1ccc2ncc(-c3cc4ccccc4o3)n2n1)c1cccnc1 (stereo not shown) too.
Result :: n

Query :: Now give it for NCC(Oc1ccc2ncc(-c3cc4ccccc4o3)n2n1)C1CC1 (stereo not shown) too.
Result :: n

Query :: Now give it for COc1cccc2oc(-c3cnc4ccc(OCC(N)C5CC5)nn34)cc12 (stereo not shown) too.
Result :: y

Query :: Now give it for "NCCCOc1ccc2ncc(-c3cc4ccccc4o3)n2n1" too.
Result :: y

Query :: Now give it for CC(CN)COc1ccc2ncc(-c3cc4ccccc4o3)n2n1 (stereo not shown) too.
Result :: y

Query :: Now give it for "C[C@H](CN)Oc1ccc2ncc(-c3cc4cc(Cl)ccc4o3)n2n1" too.
Result :: n

Query :: Now give it for NCC(Oc1ccc2ncc(-c3cc4ccccc4o3)n2n1)c1cccc(C(F)(F)F)c1 (stereo not shown) too.
Result :: n

Query :: Now give it for "NC[C@H](Oc1ccc2ncc(-c3cc4ccccc4o3)n2n1)c1cccnc1" too.
Result :: y

Query :: Now give it for "N[C@H](COc1ccc2ncc(-c3cc4ccccc4o3)n2n1)Cc1ccccc1" too.
Result :: n

Query :: Now give it for "NCC1(COc2ccc3ncc(-c4cc5ccccc5o4)n3n2)COC1" too.
Result :: n

Query :: Now give it for "N[C@H]1C[C@H](Oc2ccc3ncc(-c4cc5c(F)cccc5o4)n3n2)C1" too.
Result :: y

---

target: MKNK1 (Homo sapiens, UniProt Q9BUB5, T385D); construct: GST (N); purchased Carna Biosciences 02-145; host or cells: insect cells (baculovirus expression system); experiment: MKNK1 kinase assay (TR-FRET); format: biochemical; settings: ATP final conc. 10 µM; 15 min pre-incubation; reaction time 45 min at 22°C
Measure name: IC50 (nM)
Report only the number, with the unit nM understood.

Query :: Please give the measured IC50 for this compound: "C[C@@H](N)COc1ccc2ncc(-c3cc4ccccc4o3)n2n1"
Result :: 15

Query :: Now give it for "N[C@H](COc1ccc2ncc(-c3cc4ccccc4o3)n2n1)c1ccc(F)cc1" too.
Result :: 29

Query :: Now give it for "N[C@H](COc1ccc2ncc(-c3cc4ccccc4o3)n2n1)c1ccccc1" too.
Result :: 6

Query :: Now give it for "N[C@H]1CCC[C@H]1Oc1ccc2ncc(-c3cc4ccccc4o3)n2n1" too.
Result :: 7

Query :: Now give it for "NC[C@H](Oc1ccc2ncc(-c3cc4ccccc4o3)n2n1)c1ccccc1" too.
Result :: 26
